# System: HCC-2998 colon
# assay_remarks: NCI-60 one-dose screen, 48 h
# condition_label: 10 µM unless noted
About 83,000 compounds went through this panel and 20% of them were active in at least one assay; those are over-represented in the sample as a whole. Activity calls are given as the source filed them. How the source made its calls: active means growth percent below 10; inactive means the rest.
Outcome codes: YES for active, NO for inactive

# compound, assigned_class
rows = [
    ("Cc1nc2ccccc2c(/C=C/c2ccc(F)cc2)c1C(=O)/C=C/c1ccccc1", "NO"),
    ("CCN1C2CCC1/C(=C\\c1ccccc1)C(=O)/C2=C/c1ccccc1", "NO"),
    ("COc1ccc(C=Nc2c(C(=O)Nc3cccc(Cl)c3C)sc3nc(C)c(C(=O)/C=C/c4ccc(OC)cc4)cc23)cc1", "NO"),
    ("CSc1nc(-c2ccco2)c(C#N)c(=O)n1C", "YES"),
    ("C#CCOc1cccc(Nc2ncnc3c2ncn3C2CCN(C(=O)CCl)C2)c1 (stereo not given)", "YES"),
    ("CCN(CC)CCOc1ccc2ccc(=O)oc2c1", "NO"),
    ("N[C@@H]1CCC[C@H]1NCCCCN1C(=O)c2cccc3cc([N+](=O)[O-])cc(c23)C1=O", "NO"),
    ("CCN(CC)CCCNc1cc(OC)c(OC)c2cccnc12", "NO"),
    ("O=C1C=C(SCCO)C(=O)c2ccccc21", "NO"),
    ("O=S(=O)(Nc1cc(Sc2nc3ccccc3s2)c(O)c2ccccc12)c1ccc2ccccc2c1", "NO"),
]

###

# System: IGROV1 ovarian
# assay_remarks: NCI-60 one-dose screen, 48 h
# condition_label: 10 µM unless noted
This is part of a sample that, as a whole, favours compounds with a hit. Of some 83,000 tested, about 20% had one in any assay. Activity calls are given as the source filed them. The calls were made as follows: active = growth percent below 10; inactive = the rest.
Outcome codes: Y for active, N for inactive

# compound, assigned_class
rows = [
    ("Cc1cccc(N2C(=O)/C(=C/C(Cl)=C/c3ccc([N+](=O)[O-])cc3)SC2=S)c1C", "Y"),
    ("COc1ccc(/C=N/Nc2c3ccccc3nc3ccccc23)cc1", "N"),
    ("Clc1ccc(Nc2ncc(Cc3cccc(Cl)c3Cl)s2)cc1", "N"),
    ("COc1ccc(-c2cc(-c3cn(-c4cccc(Cl)c4)nc3-c3ccc(OC)cc3)on2)cc1", "N"),
    ("Cc1nn(C)c2ncnc(N/N=C/c3cccc(O)c3O)c12", "N"),
    ("O=S(=O)(Nc1cc(F)cc(F)c1)c1ccc(-c2cnc(C3CC3)o2)cc1", "N"),
    ("CCOC(=O)c1c(C)nc2ccccc2c1/C=C/c1ccc(F)cc1", "N"),
    ("COC12C=C/C(=C(/C(=O)OCCSc3ccnn3C)C(=O)CCCCCCCCC3(OC)C=C/C(=C(/C(=O)OCCSc4ccnn4C)C(=O)CCCCCCCC1)O3)O2", "Y"),
    ("C[C@H]1[C@H](C)CC[C@]2(C(=O)NCCNCCN)CC[C@]3(C)C(=CC[C@@H]4[C@@]5(C)CCC(=O)C(C)(C)[C@@H]5CC[C@]43C)[C@H]12", "N"),
    ("CCOC(=O)c1[nH]cc2c1CCc1sc(Nc3ccccn3)nc1-2", "N"),
    ("C=C(C)[C@@H]1CC[C@]2(COC3CCCCO3)CC[C@]3(C)[C@H](CC[C@@H]4[C@@]5(C)C=C(C=O)C(=O)C(C)(C)[C@@H]5CC[C@]43C)[C@@H]12 (some centres not stated)", "Y"),
    ("CCN(CC)CCOc1ccc(C(=O)/C=C\\c2ccc(Cl)cc2Cl)cc1", "N"),
    ("CNC(=O)Nc1ccc(-c2ccc3ncnc(Nc4cccc(Cl)c4)c3c2)cc1", "N"),
    ("Cc1ccc(O)c(NC(=O)c2cccc(Nc3ccnc(C(F)(F)F)c3)c2)c1", "N"),
    ("NC(=O)c1ccccc1OCC(=O)Nc1ccc(Cl)c(Cl)c1", "N"),
    ("Clc1ccc2nn3c4ccccc4c(OCCN4CCOCC4)nc3c2c1", "N"),
    ("COc1cc2c(cc1-c1c(C)noc1C)ncc1nc(CN3CCOCC3)n([C@H](C)COC(F)F)c12", "N"),
    ("CCOC(=O)c1c(NC(=O)c2ccccc2)sc2c3c(ccc12)OCN(C)C3", "N"),
    ("Cc1cc(Cl)nc(N2CCN(CCNc3ccnc4cc(Cl)ccc34)CC2)n1", "N"),
    ("CCN(CC)CCOc1ccc2ccc(=O)oc2c1", "N"),
    ("Cc1cc(O)cc(-c2nn(C)cc2-c2cc(N3CCOCC3)nc(-c3cccnc3)n2)c1", "N"),
    ("Cc1ccc(C2CC(c3cccc(Nc4ccncc4)c3)=Nc3c(N)nc(N)nc3N2)cc1 (configuration not stated)", "N"),
    ("Cc1cccc(NC(=O)N/C(N)=N/c2nc3ccccc3s2)c1", "N"),
    ("CCOC(=O)c1cn2ncnc(Oc3ccc(NC(=O)NC4CC4)c(Cl)c3)c2c1C", "N"),
    ("O=[N+]([O-])c1ccccc1Sc1ccccc1[N+](=O)[O-]", "N"),
    ("CN1c2ccccc2S(=O)(=O)n2c(SCC(=O)Nc3nc4ccc(F)cc4s3)nnc21", "Y"),
    ("O=c1cc(CP(=O)(O)O)c2cc(O)c(-c3ccccc3)cc2o1", "N"),
    ("C=C(C)[C@@H]1CC[C@]2(C)[C@H](C=CC3=C4C[C@@](C)(CO)CC[C@]4(C)CC[C@]32C)[C@@]1(C)CCCN", "Y"),
    ("CC(C)(C)c1ccc(S(=O)(=O)Oc2ccc(-c3sc4cc(OS(=O)(=O)c5ccc(C(C)(C)C)cc5)ccc4c3C(=O)c3ccc(OCCN4CCCCC4)cc3)cc2)cc1", "N"),
    ("COc1cc(C[C@H]2COc3cc(O)cc(O)c3C2=O)ccc1O", "N"),
    ("Cc1ccc(S(=O)(=O)OC[C@]23CCC(C)(C)C[C@H]2C2=CC[C@@H]4[C@@]5(C)CCCNC(C)(C)[C@@H]5CC[C@@]4(C)[C@]2(C)CC3)cc1", "N"),
    ("CCNC(=O)N1CCc2c(Br)c3c(c(OC)c2C1Cc1ccc(OC)cc1)OCO3 (configuration not stated)", "N"),
    ("O=C(NCc1ccc(Cn2c(=O)sn(-c3ccccc3)c2=O)cc1)OCc1ccc2cccc(O)c2n1", "Y"),
    ("N#Cc1c(-c2ccccc2)nc2c(c(-c3ccccc3)nn2-c2ccccc2)c1-c1ccc(N2CCCCC2)cc1", "N"),
    ("CCOC(=O)NCCCC(=O)NCCc1ccccc1", "N"),
    ("O=C(/C=C/c1ccccc1)c1ccc(-n2cc(CN3CCN(c4cc5c(cc4F)c(=O)c(C(=O)O)cn5C4CC4)CC3)nn2)cc1", "N"),
    ("CCOC(=O)C1=C(CC(O)c2ccc(OC)cc2OC)NC(=O)NC1c1ccccc1 (configuration not stated)", "N"),
]

###

# Tested on: NCI-H522 lung
# assay_remarks: NCI-60 one-dose screen, 48 h
# condition_label: 10 µM unless noted
About 83,000 compounds went through this panel and 20% of them were active in at least one assay; those are over-represented in the sample as a whole. Calls of active or inactive are those of the source. Rule for the calls: active = growth percent below 10; inactive = the rest.
Outcome codes: active, inactive

# molecule, assigned_class
records = [
    ("CSc1nc(-c2ccco2)c(C#N)c(=O)n1C", "inactive"),
    ("CCCC(=O)NC(c1ccc2c(c1)OCO2)c1cc(Cl)c2cccnc2c1O (stereo not given)", "inactive"),
    ("C#Cc1cccc(NC(=O)C2CCCCN2C(=O)CCl)c1 (stereo not given)", "active"),
    ("COCCn1cc(-c2nc(-c3cn(CCOC)c4ncccc34)cs2)c2cc(F)ccc21", "inactive"),
    ("CC(C)NS(=O)(=O)/N=C1\\NC(=O)NC1=C(Cl)Cl", "inactive"),
    ("N#Cc1ccc(O)c(C2=NCC(c3ccc(-c4ccccc4)cc3)O2)c1 (stereo not given)", "active"),
    ("CN1CCN(c2ccc(NC3=CC(=O)c4ncncc4C3=O)cc2)CC1", "active"),
    ("Clc1ccc(-c2cc(-c3ccccc3)nc(N3CCN(CCCNc4ccnc5cc(Cl)ccc45)CC3)n2)cc1", "active"),
    ("COc1cc(C=C2C(=O)NC(=S)NC2=O)cc(CN2CCCC2)c1O", "inactive"),
    ("CC[C@@H](C(=O)[C@@H](C)[C@@H](O)[C@H](C)[C@@H]1O[C@@H]([C@@H](CC)C(=O)ONC(=O)c2ccccc2O)CC[C@@H]1C)C1O[C@]2(C=CC(=O)[C@]3(CC[C@@](C)([C@H]4CC[C@](O)(CC)[C@H](C)O4)O3)O2)[C@H](C)C[C@@H]1C (stereo not given in full)", "inactive"),
    ("COc1ccc(/C=C/C(c2cc(OC)c(OC)c(OC)c2)n2cncn2)cc1O (stereo not given)", "inactive"),
    ("O=S(Nc1ccccc1)c1ccc(Cl)cc1 (stereo not given)", "inactive"),
    ("O=C(/C=C/c1cn(-c2ccccc2)nc1-c1ccccc1)CCC(=O)NO", "inactive"),
    ("FC(F)(F)c1[nH]ncc1-c1nc2ccc3[nH]ncc3c2c2c1CCCC2", "active"),
    ("COC(=O)c1ccc2cc(OC)c(OC)cc2c1", "inactive"),
    ("Cn1cc(-c2nonc2-c2c[nH]c3ccccc23)c2cc(Br)ccc21", "active"),
    ("CCOC(=O)C/C(=N\\Nc1cc(=O)[nH]c2ccc(C)cc12)C(=O)OCC", "inactive"),
    ("O=S(=O)(Nc1cc(F)cc(F)c1)c1ccc(-c2cnc(C3CC3)o2)cc1", "active"),
    ("CC1=Nc2cnc(Nc3ccc(N4CCCCC4)cc3)nc2Nc2ccccc21", "inactive"),
    ("CN(C)C1CN(C(=O)c2cc(-c3ccc4ncnc(N5CCc6cc(F)c(Cl)cc65)c4c3)cnc2N)C1", "inactive"),
]
